target: Amyloid-beta precursor protein (Homo sapiens); assay: Inhibition of amyloid beta (1 to 42) (unknown origin) self-aggregation at 20 uM after 24 hrs by thioflavin-T fluorescence assay relative to control
Sequence (P05067 whole entry): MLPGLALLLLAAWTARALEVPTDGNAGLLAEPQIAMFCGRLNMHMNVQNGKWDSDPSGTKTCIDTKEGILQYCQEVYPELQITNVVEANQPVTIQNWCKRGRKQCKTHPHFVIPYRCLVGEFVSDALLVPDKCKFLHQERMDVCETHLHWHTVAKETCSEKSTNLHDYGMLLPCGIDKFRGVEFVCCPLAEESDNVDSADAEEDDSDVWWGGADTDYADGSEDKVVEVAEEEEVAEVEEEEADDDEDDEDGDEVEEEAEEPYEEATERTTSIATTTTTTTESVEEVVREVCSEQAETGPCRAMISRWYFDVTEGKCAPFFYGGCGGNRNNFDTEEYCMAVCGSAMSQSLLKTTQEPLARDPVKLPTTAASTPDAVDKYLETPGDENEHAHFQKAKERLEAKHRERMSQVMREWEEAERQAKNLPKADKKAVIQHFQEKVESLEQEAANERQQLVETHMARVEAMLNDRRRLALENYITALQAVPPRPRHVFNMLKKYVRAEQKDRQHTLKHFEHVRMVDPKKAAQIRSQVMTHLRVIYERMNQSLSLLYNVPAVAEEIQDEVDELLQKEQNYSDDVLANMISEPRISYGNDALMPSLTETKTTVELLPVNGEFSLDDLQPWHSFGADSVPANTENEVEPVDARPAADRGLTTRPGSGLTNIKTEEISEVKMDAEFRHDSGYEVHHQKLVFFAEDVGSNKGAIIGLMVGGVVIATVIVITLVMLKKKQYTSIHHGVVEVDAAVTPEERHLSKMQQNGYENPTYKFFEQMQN
Observable: inhibition (%)

Summary line: C[C@H]1[C@H]2[C@H](C[C@H]3[C@@H]4CC[C@@H]5C[C@@H](OCc6ccccc6)CC[C@]5(C)[C@H]4CC[C@]23C)O[C@@H]1CC[C@H](C)C(=O)NCc1cn(Cc2ccc(Cl)cc2)nn1 , Amyloid-beta precursor protein (Homo sapiens), reported inhibition = 70.5

Lab entry: Amyloid-beta precursor protein (Homo sapiens) assay, compound Cc1ccc(Cn2cc(CNC(=O)[C@@H](C)CC[C@H]3O[C@H]4C[C@H]5[C@@H]6CC[C@@H]7C[C@@H](OCc8ccccc8)CC[C@]7(C)[C@H]6CC[C@]5(C)[C@H]4[C@@H]3C)nn2)cc1 , inhibition = 71.2

CC(C)n1cc(CNC(=O)[C@@H](C)CC[C@H]2O[C@H]3C[C@H]4[C@@H]5CC[C@@H]6C[C@@H](OCc7ccccc7)CC[C@]6(C)[C@H]5CC[C@]4(C)[C@H]3[C@@H]2C)nn1 tested on Amyloid-beta precursor protein (Homo sapiens) gave inhibition: 52.6

The compound C[C@H]1CC[C@@]2(OC1)O[C@H]1C[C@H]3[C@@H]4CC[C@@H]5C[C@@H](O)CC[C@]5(C)[C@H]4CC[C@]3(C)[C@H]1[C@@H]2C , when measured on Amyloid-beta precursor protein (Homo sapiens), yielded inhibition of 16.4

[I] CCn1cc(CNC(=O)[C@@H](C)CC[C@H]2O[C@H]3C[C@H]4[C@@H]5CC[C@@H]6C[C@@H](OCc7ccccc7)CC[C@]6(C)[C@H]5CC[C@]4(C)[C@H]3[C@@H]2C)nn1
[II] COc1cc(Cn2cc(CNC(=O)[C@@H](C)CC[C@H]3O[C@H]4C[C@H]5[C@@H]6CC[C@@H]7C[C@@H](OCc8ccccc8)CC[C@]7(C)[C@H]6CC[C@]5(C)[C@H]4[C@@H]3C)nn2)cc(OC)c1
Pick the one with the larger inhibition: I vs II // return label of chosen record
II
(II: 31.5%, I: 11.8%)

Cited source for all entries: ChEMBL document CHEMBL4152201
